# test-name: The drug is tested on Bacteroides pectinophilus strain: ATCC43243 for biotransformation. The drug concentrations were measured before and after a 12-h incubation by liquid-chromatography-coupled mass spectrometry (LC–MS)
# particulars: 2 µM
observed-property: Bacterial Biotransformation

[[record]]
compound = "CC(C)(C)NC[C@H](O)COc1nsnc1N1CCOCC1.O=C(O)/C=C\\C(=O)O [TIMOLOL MALEATE]"
value_reported = "Compound NOT metabolized"

[[record]]
compound = "CC(C)(C(=O)O)c1ccc(C(O)CCCN2CCC(C(O)(c3ccccc3)c3ccccc3)CC2)cc1 (configuration not stated) [FEXOFENADINE]"
value_reported = "Compound NOT metabolized"

[[record]]
compound = "CC(=O)OCC(=O)[C@@]1(O)[C@@H](C)C[C@H]2[C@@H]3CCC4=CC(=O)C=C[C@]4(C)[C@@]3(F)[C@@H](O)C[C@@]21C [BETAMETHASONE ACETATE]"
value_reported = "Compound NOT metabolized"

[[record]]
compound = "CN[C@H]1CC[C@@H](c2ccc(Cl)c(Cl)c2)c2ccccc21"
value_reported = "Compound NOT metabolized"

[[record]]
compound = "CC(C)N(CCC(C(N)=O)(c1ccccc1)c1ccccn1)C(C)C.O=P(O)(O)O (configuration not stated) [DISOPYRAMIDE PHOSPHATE]"
value_reported = "Compound NOT metabolized"

[[record]]
compound = "CC(CN1c2ccccc2Sc2ccccc21)N(C)C (configuration not stated)"
value_reported = "Compound NOT metabolized"


---

# test-name: The drug is tested on Bacteroides caccae strain: ATCC43185 for biotransformation. The drug concentrations were measured before and after a 12-h incubation by liquid-chromatography-coupled mass spectrometry (LC–MS)
# particulars: 2 µM
observed-property: Bacterial Biotransformation

[[record]]
compound = "CC(=O)CCCCn1c(=O)c2c(ncn2C)n(C)c1=O"
observed_property = "Bacterial Biotransformation"
value_reported = "Compound NOT metabolized"

[[record]]
compound = "COc1ccc2c(c1)c(CC(=O)O)c(C)n2C(=O)c1ccc(Cl)cc1"
observed_property = "Bacterial Biotransformation"
value_reported = "Compound metabolized"

[[record]]
compound = "Clc1ccc(Cn2c(CN3CCCC3)nc3ccccc32)cc1"
observed_property = "Bacterial Biotransformation"
value_reported = "Compound NOT metabolized"

[[record]]
compound = "CN1[C@@H]2CC[C@H]1C[C@@H](OC(=O)C(CO)c1ccccc1)C2 (stereo partly specified)"
observed_property = "Bacterial Biotransformation"
value_reported = "Compound NOT metabolized"

[[record]]
compound = "CCOC(=O)C1=C[C@]2(CC)CCCN3CCc4c(n1c1ccccc41)[C@@H]32"
observed_property = "Bacterial Biotransformation"
value_reported = "Compound NOT metabolized"

[[record]]
compound = "CCN(C)C(=O)Oc1cccc([C@H](C)N(C)C)c1.O=C(O)C(O)C(O)C(=O)O [RIVASTIGMINE TARTRATE]"
observed_property = "Bacterial Biotransformation"
value_reported = "Compound NOT metabolized"

[[record]]
compound = "COC1=C(OC)C(=O)C(CCCCCCCCCCO)=C(C)C1=O"
observed_property = "Bacterial Biotransformation"
value_reported = "Compound metabolized"

[[record]]
compound = "COc1ccc(Cc2nccc3cc(OC)c(OC)cc23)cc1OC"
observed_property = "Bacterial Biotransformation"
value_reported = "Compound NOT metabolized"

[[record]]
compound = "C=C[C@H]1CN2CC[C@H]1C[C@H]2[C@H](O)c1ccnc2ccc(OC)cc12.C=C[C@H]1CN2CC[C@H]1C[C@H]2[C@H](O)c1ccnc2ccc(OC)cc12.O.O.O=S(=O)(O)O [QUININE SULFATE]"
observed_property = "Bacterial Biotransformation"
value_reported = "Compound NOT metabolized"

[[record]]
compound = "COc1ccc2c(c1OC)C(=O)O[C@@H]2[C@H]1c2c(cc3c(c2OC)OCO3)CCN1C"
observed_property = "Bacterial Biotransformation"
value_reported = "Compound NOT metabolized"

[[record]]
compound = "CNCCC(Oc1ccc(C(F)(F)F)cc1)c1ccccc1 (stereo unspecified)"
observed_property = "Bacterial Biotransformation"
value_reported = "Compound metabolized"


---

# particulars: bacteroides fragilis, 12 h, 2 µM
# Description: The drug is tested on Bacteroides fragilis strain: NCTC 9343 for biotransformation. The drug concentrations were measured before and after a 12-h incubation by liquid-chromatography-coupled mass spectrometry (LC–MS)
observed-property: Bacterial Biotransformation

[[record]]
compound = "COc1ccc([C@@H]2Sc3ccccc3N(CCN(C)C)C(=O)[C@@H]2OC(C)=O)cc1"
value_reported = "Compound metabolized"

[[record]]
compound = "C[C@@H](c1ncncc1F)[C@](O)(Cn1cncn1)c1ccc(F)cc1F"
value_reported = "Compound NOT metabolized"

[[record]]
compound = "C#C[C@]1(OC(C)=O)CC[C@H]2[C@@H]3CCC4=CC(=O)CC[C@@H]4[C@H]3CC[C@@]21C [NORETHINDRONE ACETATE]"
value_reported = "Compound metabolized"

[[record]]
compound = "CC(=O)CC(c1ccccc1)c1c(O)c2ccccc2oc1=O (centres undefined)"
value_reported = "Compound NOT metabolized"

[[record]]
compound = "Cc1cc2c(s1)Nc1ccccc1N=C2N1CCN(C)CC1"
value_reported = "Compound NOT metabolized"

[[record]]
compound = "CC#CCn1c(N2CCC[C@@H](N)C2)nc2c1c(=O)n(Cc1nc(C)c3ccccc3n1)c(=O)n2C"
value_reported = "Compound metabolized"

[[record]]
compound = "O=C(O[C@H]1C[C@H]2CC[C@@H](C1)[N+]21CCCC1)C(O)(c1ccccc1)c1ccccc1.[Cl-] [TROSPIUM CHLORIDE]"
value_reported = "Compound NOT metabolized"

[[record]]
compound = "CN1CCN(C2=Nc3cc(Cl)ccc3Nc3ccccc32)CC1"
value_reported = "Compound NOT metabolized"

[[record]]
compound = "CC(CN1c2ccccc2Sc2ccccc21)N(C)C (centres undefined)"
value_reported = "Compound NOT metabolized"

[[record]]
compound = "CNNCc1ccc(C(=O)NC(C)C)cc1"
value_reported = "Compound NOT metabolized"

[[record]]
compound = "CN/C(=N/CCSCc1nc[nH]c1C)NC#N"
value_reported = "Compound NOT metabolized"

[[record]]
compound = "COC(=O)[C@H]1[C@H]2C[C@@H]3c4[nH]c5cc(OC)ccc5c4CCN3C[C@H]2C[C@@H](OC(=O)c2cc(OC)c(OC)c(OC)c2)[C@@H]1OC"
value_reported = "Compound NOT metabolized"

[[record]]
compound = "O=C(NC(Cc1cc(=O)[nH]c2ccccc12)C(=O)O)c1ccc(Cl)cc1 (centres undefined) [REBAMIPIDE]"
value_reported = "Compound NOT metabolized"

[[record]]
compound = "COc1ccccc1N1CCN(CC(O)COc2cccc3ccccc23)CC1 (centres undefined)"
value_reported = "Compound NOT metabolized"


---

# test-name: The drug is tested on Enterococcus faecalis strain: V583 for biotransformation. The drug concentrations were measured before and after a 12-h incubation by liquid-chromatography-coupled mass spectrometry (LC–MS)
# particulars: 2 µM
observed-property: Bacterial Biotransformation

[[record]]
molecule = "CCCCCNC(=N)N/N=C/c1c[nH]c2ccc(OC)cc12.O=C(O)/C=C\\C(=O)O [TEGASEROD MALEATE]"
observed_property = "Bacterial Biotransformation"
value_reported = "Compound NOT metabolized"

[[record]]
molecule = "COc1cc2nc(N3CCN(C(=O)C4COc5ccccc5O4)CC3)nc(N)c2cc1OC.CS(=O)(=O)O (centres undefined) [DOXAZOSIN MESYLATE]"
observed_property = "Bacterial Biotransformation"
value_reported = "Compound NOT metabolized"

[[record]]
molecule = "COCCc1ccc(OCC(O)CNC(C)C)cc1.COCCc1ccc(OCC(O)CNC(C)C)cc1.O=C(O)C(O)C(O)C(=O)O (centres undefined) [METOPROLOL TARTRATE]"
observed_property = "Bacterial Biotransformation"
value_reported = "Compound NOT metabolized"

[[record]]
molecule = "COc1ccc2[nH]c([S+]([O-])Cc3ncc(C)c(OC)c3C)nc2n1 (centres undefined)"
observed_property = "Bacterial Biotransformation"
value_reported = "Compound metabolized"

[[record]]
molecule = "Nc1nc(NC2CC2)c2ncn([C@H]3C=C[C@@H](CO)C3)c2n1.Nc1nc(NC2CC2)c2ncn([C@H]3C=C[C@@H](CO)C3)c2n1.O=S(=O)(O)O [ABACAVIR SULFATE]"
observed_property = "Bacterial Biotransformation"
value_reported = "Compound NOT metabolized"

[[record]]
molecule = "Cc1ccc(NC(=O)c2ccc(CN3CCN(C)CC3)cc2)cc1Nc1nccc(-c2cccnc2)n1"
observed_property = "Bacterial Biotransformation"
value_reported = "Compound NOT metabolized"

[[record]]
molecule = "Cc1ccc(S(=O)(=O)NC(=O)NN2CC3CCCC3C2)cc1 (centres undefined) [GLICLAZIDE]"
observed_property = "Bacterial Biotransformation"
value_reported = "Compound NOT metabolized"

[[record]]
molecule = "Cc1nc2n(c(=O)c1CCN1CCC(c3noc4cc(F)ccc34)CC1)CCCC2"
observed_property = "Bacterial Biotransformation"
value_reported = "Compound metabolized"

[[record]]
molecule = "COc1ccc([C@@H]2Sc3ccccc3N(CCN(C)C)C(=O)[C@@H]2OC(C)=O)cc1"
observed_property = "Bacterial Biotransformation"
value_reported = "Compound NOT metabolized"

[[record]]
molecule = "CN1CCOC(c2ccccc2)c2ccccc2C1 (centres undefined)"
observed_property = "Bacterial Biotransformation"
value_reported = "Compound NOT metabolized"

[[record]]
molecule = "CC(=O)CC(c1ccccc1)c1c(O)c2ccccc2oc1=O (centres undefined)"
observed_property = "Bacterial Biotransformation"
value_reported = "Compound NOT metabolized"

[[record]]
molecule = "CNCC[C@H](Oc1cccc2ccccc12)c1cccs1"
observed_property = "Bacterial Biotransformation"
value_reported = "Compound NOT metabolized"

[[record]]
molecule = "COc1ccc2c(c1OC)C(=O)O[C@@H]2[C@H]1c2c(cc3c(c2OC)OCO3)CCN1C"
observed_property = "Bacterial Biotransformation"
value_reported = "Compound metabolized"

[[record]]
molecule = "CC[C@H](C)C(=O)O[C@H]1CCC=C2C=C[C@H](C)[C@H](CC[C@@H]3C[C@@H](O)CC(=O)O3)[C@H]21"
observed_property = "Bacterial Biotransformation"
value_reported = "Compound metabolized"

